Please go through the items and note down their OD450.
Target: T1, human MSLN-R1-his protein (human, UniProt Q13421 296-390)
T1 construct: Made in HEK293E cells, purified on nickel column; also called hMSLN-R1-his; human MSLN-R1 protein; not shown: His tag
T1 chain: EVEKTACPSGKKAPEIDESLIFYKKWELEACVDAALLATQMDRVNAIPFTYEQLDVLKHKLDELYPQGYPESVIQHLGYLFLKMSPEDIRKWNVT
Test: ELISA, coated antigen, antibody 0.002 nM
Give bare numbers.

>>> readout_value("S009-F7.30.5 chimeric antibody (antibody, human IgG1, kappa, V domains shown, Human-murine chimeric antibody, human IgG1/kappa constant regions) VH: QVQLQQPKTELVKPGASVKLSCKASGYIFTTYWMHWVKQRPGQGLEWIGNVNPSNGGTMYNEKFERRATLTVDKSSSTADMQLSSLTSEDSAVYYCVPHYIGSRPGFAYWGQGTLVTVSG VL: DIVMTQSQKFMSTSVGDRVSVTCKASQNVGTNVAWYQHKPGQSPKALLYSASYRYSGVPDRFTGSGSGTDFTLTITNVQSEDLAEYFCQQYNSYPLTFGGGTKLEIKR")
0.05
>>> readout_value("S009-F7.21.16 chimeric antibody (antibody, human IgG1, kappa, V domains shown, Human-murine chimeric antibody, human IgG1/kappa constant regions) VH: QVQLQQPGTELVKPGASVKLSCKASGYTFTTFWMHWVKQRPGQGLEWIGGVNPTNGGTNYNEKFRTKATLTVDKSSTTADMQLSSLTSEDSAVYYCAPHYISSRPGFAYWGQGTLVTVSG VL: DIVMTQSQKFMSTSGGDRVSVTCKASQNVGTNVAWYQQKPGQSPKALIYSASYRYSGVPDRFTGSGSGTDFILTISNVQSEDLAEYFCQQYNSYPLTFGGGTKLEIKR")
0.05
>>> readout_value("S009-F7.61.21 chimeric antibody (antibody, human IgG1, kappa, V domains shown, Human-murine chimeric antibody, human IgG1/kappa constant regions) VH: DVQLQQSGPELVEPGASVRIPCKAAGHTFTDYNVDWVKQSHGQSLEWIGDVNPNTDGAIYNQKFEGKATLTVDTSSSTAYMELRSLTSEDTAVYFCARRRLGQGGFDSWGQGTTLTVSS VL: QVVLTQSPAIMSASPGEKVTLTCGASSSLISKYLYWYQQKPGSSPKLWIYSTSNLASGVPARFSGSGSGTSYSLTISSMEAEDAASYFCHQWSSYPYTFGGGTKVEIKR")
0.05
>>> readout_value("S009-F7.18.10 chimeric antibody (antibody, human IgG1, kappa, V domains shown, Human-murine chimeric antibody, human IgG1/kappa constant regions) VH: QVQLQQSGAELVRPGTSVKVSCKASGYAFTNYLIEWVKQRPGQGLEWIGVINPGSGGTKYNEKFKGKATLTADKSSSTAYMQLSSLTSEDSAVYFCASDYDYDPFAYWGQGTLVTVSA VL: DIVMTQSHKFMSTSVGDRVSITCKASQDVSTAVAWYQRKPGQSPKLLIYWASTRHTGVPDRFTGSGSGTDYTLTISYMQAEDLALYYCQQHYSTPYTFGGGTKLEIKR")
1.17
>>> readout_value("S009-F7.44.20 chimeric antibody (antibody, human IgG1, kappa, V domains shown, Human-murine chimeric antibody, human IgG1/kappa constant regions) VH: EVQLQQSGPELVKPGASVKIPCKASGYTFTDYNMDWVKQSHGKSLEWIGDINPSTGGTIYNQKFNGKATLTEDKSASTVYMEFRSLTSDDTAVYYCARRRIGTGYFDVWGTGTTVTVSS VL: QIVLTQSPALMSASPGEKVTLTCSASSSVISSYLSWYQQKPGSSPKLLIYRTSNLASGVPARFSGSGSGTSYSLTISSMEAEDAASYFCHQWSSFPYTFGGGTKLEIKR")
0.04
>>> readout_value("S009-F7.33.24 chimeric antibody (antibody, human IgG1, kappa, V domains shown, Human-murine chimeric antibody, human IgG1/kappa constant regions) VH: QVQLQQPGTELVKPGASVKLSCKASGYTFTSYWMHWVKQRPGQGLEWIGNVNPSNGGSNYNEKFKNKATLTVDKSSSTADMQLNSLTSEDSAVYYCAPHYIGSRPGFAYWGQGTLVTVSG VL: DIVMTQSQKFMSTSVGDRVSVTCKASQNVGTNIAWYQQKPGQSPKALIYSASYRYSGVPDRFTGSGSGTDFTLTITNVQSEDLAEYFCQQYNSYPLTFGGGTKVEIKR")
0.06
>>> readout_value("S009-F7.65.13 chimeric antibody (antibody, human IgG1, kappa, V domains shown, Human-murine chimeric antibody, human IgG1/kappa constant regions) VH: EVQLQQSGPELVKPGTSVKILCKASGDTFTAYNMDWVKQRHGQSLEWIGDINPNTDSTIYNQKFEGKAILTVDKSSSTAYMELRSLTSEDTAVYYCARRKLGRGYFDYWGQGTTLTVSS VL: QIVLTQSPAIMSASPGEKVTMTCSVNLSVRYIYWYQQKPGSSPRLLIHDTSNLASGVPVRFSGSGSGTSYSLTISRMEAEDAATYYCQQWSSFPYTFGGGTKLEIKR")
0.05
>>> readout_value("S009-F7.23.19 chimeric antibody (antibody, human IgG1, kappa, V domains shown, Human-murine chimeric antibody, human IgG1/kappa constant regions) VH: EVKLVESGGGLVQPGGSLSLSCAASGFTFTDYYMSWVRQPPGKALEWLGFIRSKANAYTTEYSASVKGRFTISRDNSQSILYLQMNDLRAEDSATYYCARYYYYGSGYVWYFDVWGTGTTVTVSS VL: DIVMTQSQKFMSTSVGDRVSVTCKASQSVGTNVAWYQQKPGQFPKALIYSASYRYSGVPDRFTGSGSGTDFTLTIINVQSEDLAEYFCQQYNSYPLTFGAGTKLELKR")
0.05
>>> readout_value("S009-F7.66.12 chimeric antibody (antibody, human IgG1, kappa, V domains shown, Human-murine chimeric antibody, human IgG1/kappa constant regions) VH: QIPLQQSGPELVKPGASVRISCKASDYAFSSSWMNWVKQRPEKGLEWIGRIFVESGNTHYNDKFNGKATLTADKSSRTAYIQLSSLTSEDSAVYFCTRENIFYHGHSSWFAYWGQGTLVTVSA VL: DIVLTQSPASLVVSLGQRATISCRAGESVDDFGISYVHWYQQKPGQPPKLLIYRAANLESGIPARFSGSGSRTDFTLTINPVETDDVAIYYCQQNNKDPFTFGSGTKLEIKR")
0.04

Kindly consider the entry below.
Q: What value of OD450 has been recorded for this entry: S009-F7.48.1 chimeric antibody (antibody, human IgG1, kappa, V domains shown, Human-murine chimeric antibody, human IgG1/kappa constant regions) VH: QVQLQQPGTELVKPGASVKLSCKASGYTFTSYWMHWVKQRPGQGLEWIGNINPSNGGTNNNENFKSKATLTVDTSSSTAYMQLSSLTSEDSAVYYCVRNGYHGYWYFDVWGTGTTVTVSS VL: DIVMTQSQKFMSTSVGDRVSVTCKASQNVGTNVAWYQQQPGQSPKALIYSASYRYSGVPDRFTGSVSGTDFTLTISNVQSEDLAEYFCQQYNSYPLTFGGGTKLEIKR
Result: 0.04
